B1: Zinc finger homeobox protein 4, residues 2562 to 2617; numbered along this chain, Q86UP3 (parent)
chain: RLRTTITPEQLEILYEKYLLDSNPTRKMLDHIAREVGLKKRVVQVWFQNTRARERK

Variants of: B1
Assay: abundance fitness (aPCA) (normalised: wild type 0, dead -1); higher = more abundant; growth selection in yeast, the domain comes from the species named
Settings: Homo sapiens
Binary classification by abundance fitness, with -0.09 as an inclusive lower bound for 1.0; all other cases are 0.0.

Q: Can T25E be said to have abundance fitness at or above -0.09?
A: 1.0

Q: Please tell me: is the variant K27I at or over -0.09 in terms of abundance fitness?
A: 0.0

Q: Evaluate H31D : abundance fitness at minimum -0.09?
A: 1.0

Q: Evaluate K40R : abundance fitness at minimum -0.09?
A: 1.0

Q: Quick check, abundance fitness >= -0.09? M28N
A: 0.0

Q: Does the variant Y18A have recorded abundance fitness that is -0.09 or more?
A: 0.0

Q: I'd appreciate it if you could say whether D30S has abundance fitness at least equal to -0.09.
A: 1.0

Q: Is reported abundance fitness greater than or equal to -0.09 here: K17W
A: 0.0

Q: Could you verify whether the entry D21K shows abundance fitness of no less than -0.09?
A: 0.0

Q: Please tell me: is the variant G37P at or over -0.09 in terms of abundance fitness?
A: 0.0

Q: Could you please find out whether K27Q has abundance fitness that meets -0.09 or exceeds it?
A: 1.0

Q: Given the entry S22R , answer whether its abundance fitness meets or surpasses -0.09.
A: 0.0

Q: Is abundance fitness for V36R at or above -0.09?
A: 0.0

Q: Textbook exercise: given the entry R34M , state whether its abundance fitness is greater than or equal to -0.09.
A: 1.0

Q: Confirm if abundance fitness reported for the variant G37Y is -0.09 or above.
A: 0.0

Q: Does abundance fitness meet or surpass -0.09 for K27P ?
A: 1.0

Q: Does L29H have a reported abundance fitness of at least -0.09?
A: 0.0

Q: Hi, just wondering whether P24V shows abundance fitness of -0.09 or higher.
A: 0.0

Q: Entry L29T : is its abundance fitness no less than -0.09?
A: 0.0

Q: hey, is abundance fitness for this one >= -0.09? K27M
A: 0.0

Q: Please check the record H31S and state if its abundance fitness is at or above -0.09.
A: 1.0

Q: Is it the case that K40D has abundance fitness reaching or exceeding -0.09?
A: 0.0

Q: Determine whether measured abundance fitness meets or exceeds -0.09 for S22M
A: 0.0

Q: Reported abundance fitness reaches at least -0.09 for Y18N ?
A: 0.0

Q: Quick check, abundance fitness >= -0.09? K17S
A: 0.0

Q: Answer whether abundance fitness of D21Y is greater than or equal to -0.09.
A: 0.0

Q: Has D30H a recorded abundance fitness greater than or equal to -0.09?
A: 0.0

Q: Reported abundance fitness at or above -0.09? A33C
A: 1.0

Q: # bool: abundance fitness of G37A >= -0.09
A: 0.0

Q: // inclusive: abundance fitness at least -0.09? input: H31T
A: 1.0

Q: Please check the record V36I and state if its abundance fitness is at or above -0.09.
A: 0.0

Q: Given V36D , state whether its abundance fitness is at least -0.09.
A: 0.0

Q: Does the variant E35I have recorded abundance fitness that is -0.09 or more?
A: 0.0

Q: Please check the record L20Q and state if its abundance fitness is at or above -0.09.
A: 0.0

Q: Tell me whether abundance fitness is at least -0.09 here: G37L
A: 0.0

Q: Given the entry M28Y , answer whether its abundance fitness meets or surpasses -0.09.
A: 0.0

Q: Reported abundance fitness reaches at least -0.09 for I32Y ?
A: 0.0

Q: # check: abundance fitness of L29V is greater than or equal to -0.09
A: 1.0

Q: Tell me whether abundance fitness is at least -0.09 here: Y18R
A: 0.0

Q: Decide: abundance fitness of K39Y >= -0.09?
A: 1.0

Q: Assess whether reported abundance fitness for G37H sits at -0.09 or higher.
A: 0.0

Q: Please indicate if the recorded abundance fitness for R34N meets or exceeds -0.09.
A: 1.0

Q: Assess whether reported abundance fitness for V36S sits at -0.09 or higher.
A: 1.0

Q: Could you tell me if the measured abundance fitness of A33P reaches -0.09 or more?
A: 0.0

Q: Hi team, for I32M , is the recorded abundance fitness at or above -0.09?
A: 0.0
